The measured values listed here are drawn from PubChem BioAssay (NCI).

Parameter: growth. Scope: all listed entries.
system: HOP-92 NSCLC; assay: NCI-60 one-dose screen, 48 h (100 = growth as untreated, 0 = no growth, -100 = all killed); settings: 10 µM unless noted
This is part of a sample that, as a whole, favours compounds with a hit. Of some 83,000 tested, about 20% had one in any assay.
The reply should be a number in %, with the unit left off.

Example cases with answers are listed next.
compound	units	growth
O=[N+]([O-])c1ccc2[nH]cc(-c3c4ccsc4cc4[nH]c5ccc([N+](=O)[O-])cc5c34)c2c1	%	26.8
CCO/C=N/C1=C(C#N)C(c2ccc(OC)cc2)c2c(c3ccccc3n(C)c2=O)O1 (centres undefined)	%	101
O=C(CC1Sc2ccccc2NC1=O)NNc1ccc(F)cc1 (centres undefined)	%	71.4

Now consider a different compound.
Please look at this compound and report its growth: O=C(c1ccccc1)c1ccc(Cl)c([N+](=O)[O-])c1
99.1
